Give LD50 for every item shown.
# assay info: Lethal dose tested in mice by oral administration
# Type: toxicity, organism-based
# condition parameters: mouse, in vivo
Numbers only, in mg/kg.

Clc1ccccc1C1=NCc2n[nH]nc2-c2ccccc21
900

Now for the compound whose LD50 we want.
Query string: Requested read-out: LD50. Entry: c1ccc(C2=NCc3n[nH]nc3-c3ccccc32)cc1
Result string: 775

* * *

# target entity: GABA-A receptor; anion channel
# assay info: In vitro inhibition of [3H]diazepam binding to rat GABA-A benzodiazepine receptor
outcome measure: pIC50
Give bare numbers, as −log10 of the molar value.

Solved cases (4 shown):
Clc1ccccc1C1=NCc2n[nH]nc2-c2ccccc21
8.28
c1ccc(C2=NCc3n[nH]nc3-c3ccccc32)cc1
6.38
Clc1ccc2c(c1)C(c1ccccc1)=NCc1n[nH]nc1-2
7.96
Clc1ccc2c(c1)C(c1ccccc1Cl)=NCc1n[nH]nc1-2
9.12

Now for the molecule whose pIC50 we want.
Query string: Requested read-out: pIC50. Entry: Fc1ccccc1C1=NCc2n[nH]nc2-c2ccc(Cl)cc21
Result string: 9.12

* * *

Give LD50 for every item shown.
# assay info: Lethal dose tested in mice by oral administration
# Format: toxicity, organism-based
# condition parameters: mouse, in vivo

Solved cases (2 shown):
Clc1ccc2c(c1)C(c1ccccc1Cl)=NCc1n[nH]nc1-2
> 1000 mg/kg
Clc1ccc2c(c1)C(c1ccccc1)=NCc1n[nH]nc1-2
> 1000 mg/kg

Now for the compound whose LD50 we want.
Query string: Requested read-out: LD50. Entry: Fc1ccccc1C1=NCc2n[nH]nc2-c2ccc(Cl)cc21
Result string: > 1000 mg/kg
